- Experimental System: GP IIb/IIIa (Homo sapiens, UniProt P05106+P08514)
- Sequence (P08514 32-887 limits assumed): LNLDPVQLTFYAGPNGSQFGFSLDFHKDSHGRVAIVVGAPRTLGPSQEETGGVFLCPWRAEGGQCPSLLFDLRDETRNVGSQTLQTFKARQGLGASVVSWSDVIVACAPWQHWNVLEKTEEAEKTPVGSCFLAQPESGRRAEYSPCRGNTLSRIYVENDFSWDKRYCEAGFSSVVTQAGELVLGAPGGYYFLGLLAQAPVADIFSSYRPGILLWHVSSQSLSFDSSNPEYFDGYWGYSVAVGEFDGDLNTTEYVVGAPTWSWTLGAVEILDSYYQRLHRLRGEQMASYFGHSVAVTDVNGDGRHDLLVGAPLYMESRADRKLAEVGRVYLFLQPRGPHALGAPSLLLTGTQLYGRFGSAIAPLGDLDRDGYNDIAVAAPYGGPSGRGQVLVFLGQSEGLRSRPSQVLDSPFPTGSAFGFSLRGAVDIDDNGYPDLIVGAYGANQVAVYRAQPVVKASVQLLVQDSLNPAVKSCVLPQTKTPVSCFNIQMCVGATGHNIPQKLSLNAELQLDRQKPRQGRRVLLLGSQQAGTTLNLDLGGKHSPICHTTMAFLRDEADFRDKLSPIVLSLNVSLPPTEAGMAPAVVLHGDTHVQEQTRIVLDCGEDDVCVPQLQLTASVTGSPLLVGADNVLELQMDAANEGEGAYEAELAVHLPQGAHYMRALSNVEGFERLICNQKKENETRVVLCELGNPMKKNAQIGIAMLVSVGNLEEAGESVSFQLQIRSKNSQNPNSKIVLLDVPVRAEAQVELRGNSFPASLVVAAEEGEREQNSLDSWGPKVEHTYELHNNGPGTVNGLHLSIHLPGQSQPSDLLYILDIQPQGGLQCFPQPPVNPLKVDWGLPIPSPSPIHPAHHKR
- Sequence (P08514 891-1039 partner limits assumed): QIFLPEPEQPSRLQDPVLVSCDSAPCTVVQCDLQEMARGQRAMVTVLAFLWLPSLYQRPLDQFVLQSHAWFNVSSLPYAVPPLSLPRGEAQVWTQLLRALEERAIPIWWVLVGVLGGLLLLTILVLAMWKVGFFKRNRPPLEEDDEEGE
- Sequence (P05106 27-788): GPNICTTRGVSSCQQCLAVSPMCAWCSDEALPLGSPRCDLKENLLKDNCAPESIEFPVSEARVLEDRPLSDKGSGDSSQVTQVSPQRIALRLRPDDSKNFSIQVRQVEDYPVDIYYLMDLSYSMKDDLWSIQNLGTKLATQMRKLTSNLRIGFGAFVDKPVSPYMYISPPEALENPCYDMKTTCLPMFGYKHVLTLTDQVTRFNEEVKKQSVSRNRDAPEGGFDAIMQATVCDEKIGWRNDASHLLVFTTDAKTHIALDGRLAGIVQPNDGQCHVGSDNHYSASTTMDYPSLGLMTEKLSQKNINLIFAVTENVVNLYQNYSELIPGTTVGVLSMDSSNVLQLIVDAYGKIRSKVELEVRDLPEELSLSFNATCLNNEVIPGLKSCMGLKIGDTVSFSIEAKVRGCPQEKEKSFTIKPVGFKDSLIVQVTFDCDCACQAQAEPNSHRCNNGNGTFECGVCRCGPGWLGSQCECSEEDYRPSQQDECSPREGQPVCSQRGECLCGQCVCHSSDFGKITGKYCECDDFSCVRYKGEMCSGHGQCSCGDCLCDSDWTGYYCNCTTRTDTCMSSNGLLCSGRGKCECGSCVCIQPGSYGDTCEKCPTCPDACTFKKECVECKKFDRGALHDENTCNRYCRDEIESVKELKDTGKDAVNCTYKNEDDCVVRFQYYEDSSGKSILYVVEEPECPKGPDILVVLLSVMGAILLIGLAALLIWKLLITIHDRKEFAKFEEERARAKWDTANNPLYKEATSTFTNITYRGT
- Method Notes: Fibrinogen-GP IIbIIIa Receptor ELISA Binding Assay (GP IIb/IIIa)
- Test Settings: read-out: GP IIb/IIla IC50
Let's look at some compounds and their measured IC50.
Numeric only. Scale: nM

Observe how each entry below is paired with its result.
What does the record list as IC50 for O=C(CCCOc1ccc(C[C@H](NS(=O)(=O)c2ccc(C(F)(F)F)cc2)C(=O)O)cc1)NC1=NCCCN1 ?
3150

What does the record list as IC50 for O=C(CCCOc1ccc(C[C@H](NS(=O)(=O)c2cccs2)C(=O)O)cc1)NC1=NCCCN1 ?
330

Next compound, IC50 to be filled in.
What does the record list as IC50 for O=C(CCCOc1ccc(C[C@H](NS(=O)(=O)c2ccc(Cl)cc2)C(=O)O)cc1)NC1=NCCCN1 ?
765
